The entries below pair compounds with IC50 values for ROCK2 (Homo sapiens, UniProt O75116), as found in several publications.

{"Compound": "CC(C)(O)c1nn(-c2ccc(-c3cn[nH]c3)cc2)c(=O)n1Cc1cccc(F)c1", "IC50": "5 to 50 nM"}
{"Compound": "COc1cccc(C(CNS(C)(=O)=O)NC(=O)c2cccc(-c3ccc4[nH]nc(C)c4c3)c2)c1 (stereo not drawn)", "IC50": "12 nM"}
{"Compound": "CC(C)(C(=O)Nc1ccc2c(c1)OCc1cnccc1-2)c1ccccc1", "IC50": "204 nM"}
{"Compound": "[H][C@]1(c2n[nH]c(=O)c3ccccc32)C[C@]2(C[C@@H](NC(=O)c3cc4nccnc4s3)C2)C1 (stereo partly drawn)", "IC50": "5.1 to 15 nM"}
{"Compound": "COc1cc(N2CCC3(CCN(C(=O)c4ccc(N5CCN(CCc6ccccc6)CC5)cc4)CC3)C2=O)ccc1-c1cn[nH]c1", "IC50": "0.6 nM"}
{"Compound": "CC(=O)Nc1ccc(CN2CCC(Nc3cccc4cnccc34)C2)cc1 (stereo not drawn)", "IC50": "2300 nM"}
{"Compound": "COc1cccc(NC2C(=O)N(c3ccc(-c4cn[nH]c4)cn3)CC23CCN(C(=O)Cc2csc(C)n2)CC3)c1 (stereo not drawn)", "IC50": "250 to 3000 nM"}
{"Compound": "CNC(=O)c1cccc(CN2C(=O)N(c3ccc(-c4cn[nH]c4)cc3)CC23CCOCC3)c1", "IC50": "30 to 250 nM"}
{"Compound": "COc1cccc(NC2C(=O)N(c3ccc(-c4cn[nH]c4)cc3)CC23CN(CC(F)F)C3)c1 (stereo not drawn)", "IC50": "250 to 3000 nM"}
{"Compound": "[2H]C([2H])([2H])n1cc(-c2ccc3c(C(=O)NC4CC5(C4)CC(c4n[nH]c(=O)c6ccccc46)C5)cnn3c2)cn1 (stereo not drawn)", "IC50": "0.2 to 2 nM"}
{"Compound": "[H][C@]1(c2n[nH]c(=O)c3ccccc32)C[C@@]2(C[C@H](NC(=O)c3cnc4cc(N5CC[C@@H](O)C5)ccn34)C2)C1 (stereo partly drawn)", "IC50": "2.01 to 5 nM"}
{"Compound": "CC(c1cccc(OCC2CC2)c1)N1CCN(c2ccc(-c3cn[nH]c3)cc2)C1=O (single isomer, unassigned)", "IC50": "2.1 to 20 nM"}
{"Compound": "COc1cccc(CN2CCN(c3ccc4c(c3)OCc3n[nH]cc3-4)C2=O)c1", "IC50": "< 10 nM"}
{"Compound": "C[C@@H](NC(=O)c1cc(-c2ccncc2)n[nH]1)c1cccc(Cl)c1", "IC50": "9.8 nM"}
{"Compound": "CCCN1CCC2(CC1)CN(c1ccc(-c3cn[nH]c3)cc1)C(=O)N2Cc1cccc(OC)c1", "IC50": "< 3 nM"}

----------
The entries below pair compounds with IC50 values for ROCK2 (Homo sapiens, UniProt O75116), as found in several publications.

{"Compound": "COc1nc(N2CCN(Cc3cccc(C)c3)C2=O)ccc1-c1cn[nH]c1", "IC50": "2.1 to 20 nM"}
{"Compound": "CCc1cc(-n2ccn(C(C)c3cccc(OC)c3)c2=O)ccc1-c1cn[nH]c1 (single isomer, unassigned)", "IC50": "2.1 to 20 nM"}
{"Compound": "O=C(NCc1cccc(OCC2CC2)c1)c1ncn2cc(-c3cn[nH]c3)ccc12", "IC50": "50 to 500 nM"}
{"Compound": "COc1ccc(CN2C(=O)N(c3ccc(-c4cn[nH]c4)cc3)CC2(C)C)cc1F", "IC50": "200 to 2000 nM"}
{"Compound": "O=C1C(Nc2ccccc2)CCN1c1ccc(-c2n[nH]c(=O)c3ccccc23)cc1 (stereo not shown)", "IC50": "10 to 100 nM"}
{"Compound": "O=c1n(Cc2ccccc2Cl)cnn1-c1ccc(-c2cn[nH]c2)cc1", "IC50": "5 to 50 nM"}
{"Compound": "O=C(Nc1cccc(-c2noc(Nc3ccc4[nH]ncc4c3Cl)n2)c1)c1ccccc1F", "IC50": "> 10000 nM"}
{"Compound": "COc1cc(N2CCC3(CCN(C(=O)c4cc(Cl)no4)CC3)C2=O)ccc1-c1cn[nH]c1", "IC50": "362 nM"}
{"Compound": "COc1cc(F)cc(NC2CCN(c3ccc4c(n3)OCc3n[nH]cc3-4)C2=O)c1 (racemic)", "IC50": "10 to 100 nM"}
{"Compound": "COc1cc(F)cc(Cn2c(CN(C)C)nn(-c3ccc(-c4cn[nH]c4)cc3)c2=O)c1", "IC50": "5 to 50 nM"}
{"Compound": "COc1cccc(CN2C(=O)N(c3ccc(-c4cn[nH]c4)cc3)CC23CCN(CC(C)O)CC3)c1 (single isomer, unassigned)", "IC50": "< 3 nM"}
{"Compound": "COc1cccc(Cn2nc(C)n(-c3ccc(-c4cn[nH]c4)cc3OC)c2=O)c1", "IC50": "250 to 2000 nM"}
{"Compound": "[H][C@]1(Oc2ncccc2C(N)=O)C[C@]2(C[C@@H](Nc3nccc(-c4cccc(C(=O)N(C)C)c4)n3)C2)C1 (stereo partly shown)", "IC50": "284 nM"}
{"Compound": "COc1cccc(NC2C(=O)N(c3ccc(-c4cn[nH]c4)cc3)CC23CCN(C(=O)CO)CC3)c1 (stereo not shown)", "IC50": "250 to 3000 nM"}
{"Compound": "[H][C@]1(Oc2ncccc2C(N)=O)C[C@]2(C[C@@H](Nc3ccnc(N4CCCC(F)(F)C4)n3)C2)C1 (stereo partly shown)", "IC50": "220 nM"}
{"Compound": "[H][C@]1(c2n[nH]c(=O)c3ccccc32)C[C@]2(C[C@@H](NC(=O)c3cc4cc(Cl)ccc4n3C)C2)C1 (stereo partly shown)", "IC50": "5.1 to 15 nM"}

----------
The entries below pair compounds with IC50 values for ROCK2 (Homo sapiens, UniProt O75116), as found in several publications.

{"Compound": "CCc1cc(N2CC(C)(C)N(Cc3cc(F)cc(OC)c3)C2=O)ccc1-c1cn[nH]c1", "Test system": "ROCK2 (Homo sapiens, UniProt O75116)", "IC50": "2.1 to 20 nM"}
{"Compound": "O=C1N(c2ccc(-c3cn[nH]c3)cc2)CC2(CCOCC2)N1Cc1c(F)cccc1F", "Test system": "ROCK2 (Homo sapiens, UniProt O75116)", "IC50": "250 to 3000 nM"}
{"Compound": "O=C(c1ccccc1)N1CCC2(CCN(c3ccc(-c4cn[nH]c4)cc3)C2=O)C1 (centres unmarked)", "Test system": "ROCK2 (Homo sapiens, UniProt O75116)", "IC50": "1220 nM"}
{"Compound": "O=C1N(c2ccc(-c3ccnc4[nH]ccc34)cc2)CCC12Cc1ccccc1CN2 (centres unmarked)", "Test system": "ROCK2 (Homo sapiens, UniProt O75116)", "IC50": "3 to 30 nM"}
{"Compound": "COc1ccc(S(=O)(=O)N2CCC3(CCN(c4ccc(-c5cn[nH]c5)c(OC)c4)C3=O)CC2)cc1", "Test system": "ROCK2 (Homo sapiens, UniProt O75116)", "IC50": "497 nM"}
{"Compound": "COc1cc(CNC(=O)N2CCc3cc(-c4cn[nH]c4F)c(F)cc32)ccc1F", "Test system": "ROCK2 (Homo sapiens, UniProt O75116)", "IC50": "≤ 50 nM"}
{"Compound": "COc1cc(C(=O)NCc2cccc(C(=O)NCC(C)(C)O)c2)ccc1-c1cn[nH]c1", "Test system": "ROCK2 (Homo sapiens, UniProt O75116)", "IC50": "0.46 nM"}
{"Compound": "[H][C@]1(Oc2ncccc2C(N)=O)C[C@]2(C[C@@H](Nc3ccnc(N4CCC(F)CC4)n3)C2)C1 (some centres unmarked)", "Test system": "ROCK2 (Homo sapiens, UniProt O75116)", "IC50": "733 nM"}

----------
The entries below pair compounds with IC50 values for ROCK2 (Homo sapiens), as found in several publications.

{"Compound": "[H][C@]1(Oc2nc(C3CC3)sc2C(N)=O)C[C@]2(C[C@@H](NC(=O)c3nc(C(F)(F)F)n4cc(-n5ccccc5=O)ccc34)C2)C1 (stereo partly drawn)", "Test system": "ROCK2 (Homo sapiens)", "Modifier sign": "=", "IC50 (nM)": 68.8}
{"Compound": "COc1cc(N2CCC3(CCN(C(=O)c4ccc(N5CCOCC5)cc4)CC3)C2=O)ccc1-c1cn[nH]c1", "Test system": "ROCK2 (Homo sapiens)", "Modifier sign": "=", "IC50 (nM)": 2}
{"Compound": "COc1cc(N2CCC3(Cc4ccccc4N3)C2=O)ccc1-c1cn[nH]c1 (racemic)", "Test system": "ROCK2 (Homo sapiens)", "Modifier sign": "<", "IC50 (nM)": 3}
{"Compound": "CN1CCN(c2ccc(C(=O)N3CCC4(CC3)CCN(c3cccc(-c5ccc6cn[nH]c6c5)c3)C4=O)cc2)CC1", "Test system": "ROCK2 (Homo sapiens)", "Modifier sign": "=", "IC50 (nM)": 6.8}
{"Compound": "COc1cc(N2CCC3(CCN(C(=O)c4ccc5c(ccn5C)c4)CC3)C2=O)ccc1-c1cn[nH]c1", "Test system": "ROCK2 (Homo sapiens)", "Modifier sign": "=", "IC50 (nM)": 4.5}
{"Compound": "[H][C@]1(Oc2ncccc2C(N)=O)C[C@]2(C[C@@H](Nc3ccnc(N4CCC(F)(F)C4)n3)C2)C1 (stereo partly drawn)", "Test system": "ROCK2 (Homo sapiens)", "Modifier sign": "=", "IC50 (nM)": 398}
{"Compound": "COCCn1ncc(C(N)=O)c1O[C@H]1C[C@@]2(C[C@H](NC(=O)c3cnn4c(C5CC5)c(OCC(C)(C)O)ccc34)C2)C1 (stereo partly drawn)", "Test system": "ROCK2 (Homo sapiens)", "Modifier sign": "=", "IC50 (nM)": 1480}
{"Compound": "COc1cc(C(=O)NCc2cccc3[nH]ncc23)ccc1-c1cn[nH]c1", "Test system": "ROCK2 (Homo sapiens)", "Modifier sign": "=", "IC50 (nM)": 7.99}
{"Compound": "COc1cc(-c2nnc(Nc3ccc4[nH]ncc4c3Cl)o2)ccc1OCC(=O)NC(C)C", "Test system": "ROCK2 (Homo sapiens)", "Modifier sign": "<", "IC50 (nM)": 300}
